Just for reference, PubChem BioAssay (NCI) is where these values come from.

- Tested on: ACHN renal
- PROTOCOL: NCI tumour cell line growth inhibition, 48 h
Catalogue of compounds with associated TGI

MOL SMILES	TGI
Fc1ccc(-c2ncn(CCCN3CCOCC3)c2-c2ccncc2)cc1	> 25 µM
CN[C@@H](Cc1cccc2ccccc12)C(=O)N[C@@H](CC(C)C)B(O)O	> 100 µM
COc1ccc(C[C@]23CCC(=O)N2CCc2cc(OC)c(O)cc23)cc1O	> 100 µM

----------
- Tested on: TK-10 renal
- PROTOCOL: NCI tumour cell line growth inhibition, 48 h

COMPOUND	TGI
CCCCC(OC(=O)c1ccc(N)cc1)C(=O)Nc1nc(CC(=O)OCC)cs1 (stereo not given)	> 100 µM
Cn1ccc(=NS(=O)(=O)c2ccccc2)cc1	> 100 µM
N#CC1(C#N)[C@@H]2CCC=C(Sc3ccccc3)[C@@H]21	28.9 µM
COc1cc2c3c(n(CCCn4cncn4)c(=O)c2cc1OC)-c1cc2c(cc1C3=O)OCO2	> 88.1 µM
CC1=C[C@H]([C@H]2C=C(C)C(C(N)=O)=CN2Cc2c(Cl)cccc2Cl)N(Cc2c(Cl)cccc2Cl)C=C1C(N)=O	> 75 µM
CN(C)c1ccc(C2CC(=O)CC(c3ccc(N(C)C)cc3)C23C(=O)NC(=S)NC3=O)cc1 (stereo not given)	> 100 µM
CN(CCNC(=O)c1nn(-c2ccc(Cl)cc2Cl)c2c1Cc1ccccc1-2)CCNC(=O)c1nn(-c2ccc(Cl)cc2Cl)c2c1Cc1ccccc1-2	24.6 µM
OCCN(CCO)c1nc(N2CCCCC2)c2nc(N(CCO)CCO)nc(N3CCCCC3)c2n1	64.6 µM
N#Cc1sc2c(c1OC(=O)c1ccc(Cl)cc1Cl)c(=O)n(-c1ccccc1)c(=S)n2-c1ccccc1	92.5 µM
CCc1[nH]nc(C(N)=O)c1N=NN(C)C	> 100 µM
O=C1NC(=NCc2ccc(F)cc2)N/C1=C\c1ccccc1Cl	67.4 µM
COc1cc(/C=C2\NC(=O)C3Cc4c(OC)c(C)c(OC)c(OC)c4C2N3C)c(OC)c(C)c1OC (stereo not given)	> 100 µM
C/C(=C\C(C[C@](C)(O)C(O)CCC#C[Si](C)(C)C)S(=O)(=O)c1ccccc1)CC/C=C/CO[Si](C)(C)C(C)(C)C (stereo not given in full)	37.7 µM
O=c1c(C(c2ccc([N+](=O)[O-])cc2)c2c(O)c3ccccc3n(-c3ccccc3)c2=O)c(O)c2ccccc2n1-c1ccccc1	> 100 µM
CCOC(=O)c1c2c(n3ccc(NC(=O)CCN4CCCCC4)cc13)C(=O)c1ncccc1C2=O	2.25 µM
COC(=O)c1sc2c(=O)c(C(=O)OC)c(C(=O)OC)sc2c(=O)c1C(=O)OC	> 100 µM
O=C(Nc1cccc(C(F)(F)F)c1)c1ccc(NC2=C(Cl)C(=O)N(Cc3ccccc3)C2=O)cc1	37.4 µM
OCC(O)COCn1cc(Cn2ncc3c(NCc4ccccc4)ncnc32)nn1 (stereo not given)	> 100 µM
COC(=O)CCC(=O)c1ccc2c(c1)CC1(C2)Cc2ccc(C(=O)CCC(=O)OC)cc2C1	> 100 µM
CC1(O)C2(c3ccccc3)CCC[N+]1(C)CC2 (stereo not given)	> 100 µM
O=C(CC1(O)C(=O)Nc2ccc([N+](=O)[O-])cc21)c1ccncc1 (stereo not given)	> 100 µM
O=C1CCC2(CC1CCS(=O)c1ccccc1)OCCO2 (stereo not given)	> 100 µM
CN(/N=C/c1ccc(Cl)c(Cl)c1)C1=NCCCCN1	> 100 µM
CSc1nc(NC2OCC(OC(C)=O)C(OC(C)=O)C2OC(C)=O)c2c(n1)OCC2=O (stereo not given)	> 100 µM
O=C1/C(=C/C=C/c2ccccc2)N=C(c2ccccc2)N1c1ccc(S(=O)(=O)Nc2nccs2)cc1	> 100 µM
CC(C)C1=CC2=CC[C@@H]3[C@](C)(CCC[C@@]3(C)C(=O)O)[C@H]2CC1	> 100 µM
O=c1[nH]nc(CNc2ccc(Cl)cc2Cl)c2ccccc12	45.7 µM
COc1ccc2nc3cc([N+](=O)[O-])ccc3c(Nc3ccc(S(=O)(=O)Nc4ncccn4)cc3)c2c1	> 100 µM
CCc1cccc(NC(=O)Nc2ccc(Oc3ccc4nc(NC(=O)OC)[nH]c4c3)cc2)c1	> 19.8 µM
Cc1cccc2c(NCCN(C)C)c3cccc(C(=O)NCCN(C)C)c3nc12	8.94 µM
